- testedTarget: T1, FLAG fusion human CRTH2 (human, UniProt Q9Y5Y4 1-395)
- T1 construct: Expressed on rat 3Y1-B cells; also called human CRTH2 with a C terminal to which a FLAG tag was added; not shown: FLAG tag at the C terminal
- T1 sequence: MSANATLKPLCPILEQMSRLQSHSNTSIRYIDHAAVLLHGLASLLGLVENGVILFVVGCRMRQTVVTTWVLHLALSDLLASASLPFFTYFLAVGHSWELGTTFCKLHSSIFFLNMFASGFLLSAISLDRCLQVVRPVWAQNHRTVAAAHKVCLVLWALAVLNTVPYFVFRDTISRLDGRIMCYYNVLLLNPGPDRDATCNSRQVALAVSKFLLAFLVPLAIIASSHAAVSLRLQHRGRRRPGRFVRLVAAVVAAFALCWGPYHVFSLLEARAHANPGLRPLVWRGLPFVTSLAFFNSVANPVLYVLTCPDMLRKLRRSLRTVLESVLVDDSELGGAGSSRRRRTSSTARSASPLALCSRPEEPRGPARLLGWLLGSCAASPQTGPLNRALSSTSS
- testDetails: flow cytometry on FLAG fusion human CRTH2-expressing 3Y1-B cells; logistic fit of Geomean; ± is the standard error
Provide the reported EC50 of each item.
Quick reminder: number only, in mg/L, skip the unit.

Please report the recorded EC50 for humanized Lym2 antibody LV4HV4 (antibody, V domains shown) VH: EVQLVESGGGVVQPGRSMRLSCAASGFTFSNYYMAWVRQAPGKGLEWVATISYDGSSTYYRDSVKGRFTISRDNAKSSLYLQMNSLRAEDTATYYCARHRGYYYSGAGYFDYWGQGVMVTVSS VL: DVVLTQTPLSLPVTLGESASISCRSSQSLEYSDGYTYLEWYLQKPGQSPQVLIYGVSNRFSGVPDRFSGSGSGTDFTLKISRVEPEDVGVYYCFQATHDPLTFGQGTKLEIK .
0.68

Try this binder too: humanized Lym2 antibody LV4HV0 (antibody, V domains shown) VH: EVQLVESGGGVVQPGRSLRLSCAASGFTFSNYYMAWVRQAPGKGLEWVATISYDGSSTYYRDSVKGRFTISRDNAKNSLYLQMNSLRAEDTAVYYCARHRGYYYSGAGYFDYWGQGTMVTVSS VL: DVVLTQTPLSLPVTLGESASISCRSSQSLEYSDGYTYLEWYLQKPGQSPQVLIYGVSNRFSGVPDRFSGSGSGTDFTLKISRVEPEDVGVYYCFQATHDPLTFGQGTKLEIK
0.74

# repeat for humanized Lym2 antibody LV3aHV0 (antibody, V domains shown) VH: EVQLVESGGGVVQPGRSLRLSCAASGFTFSNYYMAWVRQAPGKGLEWVATISYDGSSTYYRDSVKGRFTISRDNAKNSLYLQMNSLRAEDTAVYYCARHRGYYYSGAGYFDYWGQGTMVTVSS VL: DVVLTQTPLSLPVTPGESASISCRSSQSLEYSDGYTYLEWYLQKPGQSPQVLIYGVSNRFSGVPDRFSGSGSGTDFTLKISRVEPEDVGVYYCFQATHDPLTFGQGTKLEIK
0.7

Repeat with humanized Lym2 antibody LV2cHV0 (antibody, V domains shown) VH: EVQLVESGGGVVQPGRSLRLSCAASGFTFSNYYMAWVRQAPGKGLEWVATISYDGSSTYYRDSVKGRFTISRDNAKNSLYLQMNSLRAEDTAVYYCARHRGYYYSGAGYFDYWGQGTMVTVSS VL: DVVLTQTPLSLPVTPGESASISCRSSQSLEYSDGYTYLEWYLQKPGQSPQVLIYGVSNRFSGVPDRFSGSGSGTDFTLKISRVEAEDVGVYYCFQATHDPLTFGQGTKLEIK
0.68

Can you handle humanized Lym2 antibody LV2aHV4 (antibody, V domains shown) VH: EVQLVESGGGVVQPGRSMRLSCAASGFTFSNYYMAWVRQAPGKGLEWVATISYDGSSTYYRDSVKGRFTISRDNAKSSLYLQMNSLRAEDTATYYCARHRGYYYSGAGYFDYWGQGVMVTVSS VL: DIVLTQTPLSLPVTLGESASISCRSSQSLEYSDGYTYLEWYLQKPGQSPQVLIYGVSNRFSGVPDRFSGSGSGTDFTLKISRVEAEDVGVYYCFQATHDPLTFGQGTKLEIK next?
0.51

Same question for humanized Lym2 antibody LV3bHV0 (antibody, V domains shown) VH: EVQLVESGGGVVQPGRSLRLSCAASGFTFSNYYMAWVRQAPGKGLEWVATISYDGSSTYYRDSVKGRFTISRDNAKNSLYLQMNSLRAEDTAVYYCARHRGYYYSGAGYFDYWGQGTMVTVSS VL: DVVLTQTPLSLPVTLGESASISCRSSQSLEYSDGYTYLEWYLQKPGQSPQVLIYGVSNRFSGVPDRFSGSGSGTDFTLKISRVEAEDVGVYYCFQATHDPLTFGQGTKLEIK please.
0.81
